Target: T1, PUF4 RNA-binding domain (Saccharomyces cerevisiae, UniProt P25339 537-888)
T1 sequence: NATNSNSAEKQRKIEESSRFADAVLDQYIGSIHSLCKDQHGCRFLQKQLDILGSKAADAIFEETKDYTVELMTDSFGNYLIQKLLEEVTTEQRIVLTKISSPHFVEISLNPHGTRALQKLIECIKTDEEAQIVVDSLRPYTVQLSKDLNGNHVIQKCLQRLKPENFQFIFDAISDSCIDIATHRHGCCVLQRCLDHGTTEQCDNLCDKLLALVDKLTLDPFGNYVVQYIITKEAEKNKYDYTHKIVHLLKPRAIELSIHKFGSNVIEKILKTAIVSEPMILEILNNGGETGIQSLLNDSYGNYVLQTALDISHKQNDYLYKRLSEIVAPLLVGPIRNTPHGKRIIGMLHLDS
Test: Mg; RNA-MaP; 20 mM Na-HEPES pH 7.4, 30 mM KOAc, 0.75 mM MgCl2, 0.1% Tween-20, 5% glycerol, 0.1 mg/mL BSA, 2 mM DTT; 25 C; 0.0125-409.6 nM protein
Conditions: tags: N-His6-TEV cleaved; C-SNAP kept, Cy3B-labelled; label: tethered on chip by stalled RNA polymerase
test_readout: Kd (µM)
Numbers only, in µM.

Please review the following examples before continuing.
binder	test_readout	readout_number
UCUCUUUGUAUUUGGUCUCUU (ssRNA) [Ic_S1_P4E.1_K4.1_C4.1_H4.1_A4.1_[A6T]_F4.1_[T8G]_[A9G]_T4.1]	Kd	0.63
Ib_S4_P4E.1_K4.1_C4.1_H4.1_[T1A]_[T3C]_A4.1_F4.1_T4.1 (ssRNA) RNA: UUUGACAACUGAUCGUUCUUUCUAGCAUAUUAUUCUUUCUCGAUCAGUUGUCUUU	Kd	1.88

Provide each entry's Kd from the list below.
1. Id_ii_S4_P5E.3_K5.2_C5.2_[C-2G]_H5.2_A5.1_F5.1_T5.2_[T11C]_[A12G] (ssRNA) RNA: UUUGACAACUGAUCGUUCUUUCUGUUAUAUUAUUACGUUCUUUCUCGAUCAGUUGUCUUU
2. Ic_S2_P4E.1_K4.1_C4.1_H4.1_A4.1_[T5C]_[A6C]_[T7G]_F4.1_[T8C]_[A9T]_T4.1 (ssRNA) RNA: UUUGAUUAAUAUGAUAUCGUUCUUUCUUGUACCGCUUUCUUUCUCGAUAUCAUAUUAAUCUUU
3. UCUCUUCCUGUAUAUAACUCUCUU (ssRNA) [Id_ii_S1_P3E.2_K3.1_C3.2_[T-1C]_H3.1_A3.1_F3.1_T3.2_[T9A]_[A10C]]
4. UCUCUUUGUACUCUAUUCUCUU (ssRNA) [Ic_S1_P5E.1_K5.1_C5.1_H5.1_A5.1_[T5C]_[A7C]_F5.1_[T9A]_[A10T]_T5.1]

Outgoing:
[0.176, 0.154, 0.00669, 0.00385]
